tgt: Pin1 (Homo sapiens, UniProt Q13526)
Sequence (Q13526 whole entry): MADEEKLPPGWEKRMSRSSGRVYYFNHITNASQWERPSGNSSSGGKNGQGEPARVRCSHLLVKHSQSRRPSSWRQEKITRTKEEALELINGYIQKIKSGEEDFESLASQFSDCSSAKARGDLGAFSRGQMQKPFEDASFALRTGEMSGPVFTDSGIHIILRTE
procedureSummary: Pin1 fluorescence polarization competition assay, primary qHTS (HiFluor-488 / Alexa488 probe);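 also: Pin1 protein with fluorescent peptide probe, compound displacement read by fluorescence polarization, percent inhibition derived from corrected polarization values, concentration-response curves in 1536-well format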
experimentalConditions: read-out: Alexa488 Primary Efficacy
measuredQuantity: Emax (%)

Past entries and their recorded results:
# compound, Emax / %
records = [
    ("Cc1ccc(C)n1-c1sccc1C(=O)O", 44),
    ("NS(=O)(=O)c1cc(C(=O)NC2CCSc3ccccc32)ccc1Cl (centres unmarked)", 65),
    ("CCOc1cc(Br)cc(C(c2c(C(=O)O)[nH]c3ccccc23)c2c(C(=O)O)[nH]c3ccccc23)c1O", 72),
    ("Cc1ccc(C)n1-c1cccc(C(=O)O)c1", 64),
    ("N#Cc1no[n+]([O-])c1C(=O)c1cccs1", 74),
]

[a] CCn1nc(-c2ccccc2C)nc2c(=O)n(C)c(=O)nc1-2
[b] CC(C)COc1ccc(C(=O)N/C(=C\c2cccc([N+](=O)[O-])c2)C(=O)O)cc1
[c] Cc1ccc(C(=O)c2no[n+]([O-])c2C(=O)c2ccc(C)cc2)cc1
Falling order of Emax, please. Dear reader, please state the labels in the requested order. c, a, b

[1] O=C(O)C1Nc2ccc(Br)cc2C2C=CCC12 (centres unmarked)
[2] CCCCCCCCCCCCN1[C@@H](C(=O)O)c2cc(C(F)(F)F)ccc2S1(=O)=O
[3] COc1cc(C(c2c(C(=O)O)[nH]c3ccccc23)c2c(C(=O)O)[nH]c3ccccc23)ccc1OCc1ccccc1
Order these by Emax, descending, and give the full ranking. Lab note: record answer as labels in requested order. 2, 1, 3

[I] CC(=O)c1ccc2c(c1)C1C=CCC1C(C(=O)O)N2 (centres unmarked)
[II] COc1ccc(C(=O)c2no[n+]([O-])c2C(=O)c2ccc(OC)cc2)cc1
Field: lower Emax | Options: I / II Mark your answer with the label of the selected entry. II
(II: 21%, I: 66%)
